# Test Target: MaxL homodimer (Homo sapiens, UniProt P61244 1-160)
# Sequence (P61244 whole entry): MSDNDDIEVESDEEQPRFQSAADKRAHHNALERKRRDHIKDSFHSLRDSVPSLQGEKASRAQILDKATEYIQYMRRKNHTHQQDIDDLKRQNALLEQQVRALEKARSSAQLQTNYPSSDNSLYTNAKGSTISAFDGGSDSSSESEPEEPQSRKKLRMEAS
# Method Description: universal protein-binding microarray (PBM); PBS-based mixture, 10 nM His-tagged protein dimer, 2% milk, 200 ng/uL BSA, 50 ng/uL salmon testes DNA, 0.02% TX-100; detection with Alexa 488 anti-His antibody;; high values mean tight binding;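 note: fluorescence intensity normalized to that of the highest-ranked 8-mer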
# Assay Context: protein: recombinant; tags: C-terminal His-tag (pET21a); chain copies: 2; dsDNA, one strand shown
Whole data set: some 33,000 sequences, median “normalized occupancy” near 0.075, cut for the highest 2% near 0.095. The sample holds the highest values, similar sequences and a random draw of the others, so the mix is not that of the screen.
Quick reference: binding signal of the listed items.
Property Name: binding signal (normalized occupancy)

# Biosequence, Unit, Endpoint Value
rows = [
    ("CCATGGGG", "normalized occupancy", 0.0949),
    ("AGAGTGGG", "normalized occupancy", 0.0749),
    ("TGCCCAAA", "normalized occupancy", 0.0731),
    ("AGCGTGGG", "normalized occupancy", 0.113),
    ("CTTTCTGC", "normalized occupancy", 0.0723),
    ("CTGGGGAA", "normalized occupancy", 0.0741),
    ("GCTACGAC", "normalized occupancy", 0.078),
    ("TTCATAAA", "normalized occupancy", 0.0768),
    ("CACAACCA", "normalized occupancy", 0.0825),
    ("ACCTTATG", "normalized occupancy", 0.0812),
    ("AGCGTTGC", "normalized occupancy", 0.0728),
    ("CATGCGGA", "normalized occupancy", 0.126),
    ("ACCCACCG", "normalized occupancy", 0.0804),
    ("GGCGTCGA", "normalized occupancy", 0.0725),
    ("ACATGGAA", "normalized occupancy", 0.0918),
    ("CGAGGGCA", "normalized occupancy", 0.0765),
    ("ACGCCATG", "normalized occupancy", 0.102),
    ("ACGCCACA", "normalized occupancy", 0.0778),
    ("AATGCGGG", "normalized occupancy", 0.0799),
    ("ACGTTCCC", "normalized occupancy", 0.0819),
    ("ACCTAACC", "normalized occupancy", 0.0792),
    ("TCATTGCA", "normalized occupancy", 0.0829),
    ("ACCATGGT", "normalized occupancy", 0.0862),
    ("CTTATTAC", "normalized occupancy", 0.0796),
    ("ATGGACTA", "normalized occupancy", 0.0826),
    ("AGCGTGGC", "normalized occupancy", 0.108),
    ("ACAATGCG", "normalized occupancy", 0.0867),
    ("CCTGCTAC", "normalized occupancy", 0.0758),
    ("ACCATGTA", "normalized occupancy", 0.0876),
    ("ACATGCAG", "normalized occupancy", 0.097),
    ("ACATGGAG", "normalized occupancy", 0.0868),
    ("CGACAGCA", "normalized occupancy", 0.0797),
    ("CCGAGAGA", "normalized occupancy", 0.0728),
    ("GAACGTGA", "normalized occupancy", 0.0801),
    ("ACTTGGGG", "normalized occupancy", 0.0791),
    ("CAGGCGGG", "normalized occupancy", 0.0747),
    ("CACATTGC", "normalized occupancy", 0.0923),
    ("GAAGTGAC", "normalized occupancy", 0.0733),
    ("CCCGTGGC", "normalized occupancy", 0.0811),
    ("AAACGTAG", "normalized occupancy", 0.0771),
    ("ACCATGGA", "normalized occupancy", 0.0861),
    ("ATTGGAAC", "normalized occupancy", 0.076),
    ("CACATTTA", "normalized occupancy", 0.0961),
    ("ACCATGCG", "normalized occupancy", 0.136),
    ("CATCTCAA", "normalized occupancy", 0.0793),
    ("CGTGGTTC", "normalized occupancy", 0.0858),
    ("CTATTGTC", "normalized occupancy", 0.079),
    ("ATGTTGTG", "normalized occupancy", 0.0817),
    ("TATTACAA", "normalized occupancy", 0.0802),
    ("ATCTAGTG", "normalized occupancy", 0.078),
    ("ATGAAGCA", "normalized occupancy", 0.082),
    ("CATGCGGC", "normalized occupancy", 0.121),
    ("CCCATGTA", "normalized occupancy", 0.0872),
    ("CGGGTGGC", "normalized occupancy", 0.0775),
    ("GTAATAAA", "normalized occupancy", 0.076),
    ("ACTATGCG", "normalized occupancy", 0.0817),
    ("ATGCCACG", "normalized occupancy", 0.101),
    ("ACTGTTCA", "normalized occupancy", 0.073),
    ("ATAGACCC", "normalized occupancy", 0.0762),
    ("TCTAGCCA", "normalized occupancy", 0.0723),
    ("ATGCCACC", "normalized occupancy", 0.0841),
    ("CATATTGA", "normalized occupancy", 0.0806),
    ("CTATAGGA", "normalized occupancy", 0.0753),
    ("AGAGTTTG", "normalized occupancy", 0.073),
    ("ACCATGTC", "normalized occupancy", 0.0794),
    ("CGCATGTA", "normalized occupancy", 0.105),
    ("AAACGTCG", "normalized occupancy", 0.0737),
    ("GCGATTCC", "normalized occupancy", 0.0814),
    ("TCTCACAA", "normalized occupancy", 0.0786),
    ("ACATGGCT", "normalized occupancy", 0.0932),
]
